Taken from paper PMC5839499.

- EXPERIMENT DESCRIPTION: Cytotoxicity assay
- Assay type: cell-based
- CONDITION SET: mouse, GLUTag L cells
ASSAY ENDPOINT: CC50 at 48 h (µM)

[
  {
    "COMPOUND": "CCc1cnc(N2CCC(c3nc(COc4ccc(-n5cnnn5)cc4)cs3)CC2)nc1 [MBX2982, reference compound]",
    "TEST VALUE": 12.2
  }
]

---

- EXPERIMENT DESCRIPTION: Pharmacokinetics of YH18968 in normal mice
- Assay type: in vivo, C57BL/6J mice
- CONDITION SET: male, C57BL/6J, mouse, plasma, po, 10 mg/kg

[
  {
    "MOLECULE SMILES": "CC(C)c1nc(N2CCN(c3ncc(-c4ccc(-n5cnn([C@H]6CCOC6)c5=O)c(F)c4)cc3C#N)CC2)no1",
    "half-life [min]": 156
  }
]

---

- EXPERIMENT DESCRIPTION: Pharmacokinetics of YH18968 in normal mice
- Assay type: in vivo, C57BL/6J mice
- CONDITION SET: male, C57BL/6J, mouse, plasma, po, 100 mg/kg
ASSAY ENDPOINT: Tmax (min)

[
  {
    "MOLECULE SMILES": "CC(C)c1nc(N2CCN(c3ncc(-c4ccc(-n5cnn([C@H]6CCOC6)c5=O)c(F)c4)cc3C#N)CC2)no1",
    "ASSAY ENDPOINT": "Tmax",
    "VALUE UNITS": "min",
    "TEST VALUE": 30
  }
]

---

- EXPERIMENT DESCRIPTION: Pharmacokinetics of YH18968 in normal mice
- Assay type: in vivo, C57BL/6J mice
- CONDITION SET: male, C57BL/6J, mouse, plasma, po, 10 mg/kg

[
  {
    "MOLECULE SMILES": "CC(C)c1nc(N2CCN(c3ncc(-c4ccc(-n5cnn([C@H]6CCOC6)c5=O)c(F)c4)cc3C#N)CC2)no1",
    "VALUE UNITS": "ng·h/mL",
    "AUC(0-t)": 2470
  }
]

---

- EXPERIMENT DESCRIPTION: Pharmacokinetics of YH18968 in normal mice
- Format: in vivo, C57BL/6J mice
- CONDITION SET: male, C57BL/6J, mouse, plasma, po, 10 mg/kg
ASSAY ENDPOINT: bioavailability (%)

[
  {
    "COMPOUND": "CC(C)c1nc(N2CCN(c3ncc(-c4ccc(-n5cnn([C@H]6CCOC6)c5=O)c(F)c4)cc3C#N)CC2)no1 [YH18968]",
    "ASSAY ENDPOINT": "bioavailability",
    "VALUE UNITS": "%",
    "TEST VALUE": 18
  }
]

---

- EXPERIMENT DESCRIPTION: Pharmacokinetics of YH18968 in normal mice
- Assay type: in vivo, C57BL/6J mice
- CONDITION SET: male, C57BL/6J, mouse, plasma, po, 10 mg/kg

[
  {
    "MOLECULE SMILES": "CC(C)c1nc(N2CCN(c3ncc(-c4ccc(-n5cnn([C@H]6CCOC6)c5=O)c(F)c4)cc3C#N)CC2)no1",
    "Cmax": "760 ng/mL"
  }
]

---

- EXPERIMENT DESCRIPTION: Pharmacokinetics of YH18968 in normal mice
- Type: in vivo, C57BL/6J mice
- CONDITION SET: male, C57BL/6J, mouse, plasma, po
ASSAY ENDPOINT: Tmax (min)

[
  {
    "MOLECULE SMILES": "CC(C)c1nc(N2CCN(c3ncc(-c4ccc(-n5cnn([C@H]6CCOC6)c5=O)c(F)c4)cc3C#N)CC2)no1",
    "ASSAY ENDPOINT": "Tmax",
    "VALUE UNITS": "min",
    "TEST VALUE": 30
  }
]

---

- EXPERIMENT DESCRIPTION: Pharmacokinetics of YH18968 in normal mice
- Assay type: in vivo, C57BL/6J mice
- CONDITION SET: male, C57BL/6J, mouse, plasma, po, 100 mg/kg

[
  {
    "MOLECULE SMILES": "CC(C)c1nc(N2CCN(c3ncc(-c4ccc(-n5cnn([C@H]6CCOC6)c5=O)c(F)c4)cc3C#N)CC2)no1",
    "AUC(0-inf) / ng·h/mL": 15800
  }
]

---

- EXPERIMENT DESCRIPTION: Pharmacokinetics of YH18968 in normal mice
- Assay type: in vivo, C57BL/6J mice
- CONDITION SET: male, C57BL/6J, mouse, plasma, iv, 1 mg/kg

[
  {
    "COMPOUND": "CC(C)c1nc(N2CCN(c3ncc(-c4ccc(-n5cnn([C@H]6CCOC6)c5=O)c(F)c4)cc3C#N)CC2)no1 [YH18968]",
    "Vd (L/kg)": 2.11
  }
]

---

- EXPERIMENT DESCRIPTION: Pharmacokinetics of YH18968 in normal mice
- Type: in vivo, C57BL/6J mice
- CONDITION SET: male, C57BL/6J, mouse, plasma, po, 100 mg/kg
ASSAY ENDPOINT: bioavailability (%)

[
  {
    "COMPOUND": "CC(C)c1nc(N2CCN(c3ncc(-c4ccc(-n5cnn([C@H]6CCOC6)c5=O)c(F)c4)cc3C#N)CC2)no1 [YH18968]",
    "ASSAY ENDPOINT": "bioavailability",
    "TEST VALUE": 4.8
  }
]

---

- EXPERIMENT DESCRIPTION: Pharmacokinetics of YH18968 in normal mice
- Assay type: in vivo, C57BL/6J mice
- CONDITION SET: male, C57BL/6J, mouse, plasma, po, 10 mg/kg

[
  {
    "COMPOUND": "CC(C)c1nc(N2CCN(c3ncc(-c4ccc(-n5cnn([C@H]6CCOC6)c5=O)c(F)c4)cc3C#N)CC2)no1 [YH18968]",
    "Tmax [min]": 30
  }
]

---

- EXPERIMENT DESCRIPTION: Pharmacokinetics of YH18968 in normal mice
- Type: in vivo, C57BL/6J mice
- CONDITION SET: male, C57BL/6J, mouse, plasma, po, 100 mg/kg
ASSAY ENDPOINT: Cmax

[
  {
    "MOLECULE": "CC(C)c1nc(N2CCN(c3ncc(-c4ccc(-n5cnn([C@H]6CCOC6)c5=O)c(F)c4)cc3C#N)CC2)no1 [YH18968]",
    "TEST VALUE": "1.47 µg/mL"
  }
]

---

- EXPERIMENT DESCRIPTION: Pharmacokinetics of YH18968 in normal mice
- Type: in vivo, C57BL/6J mice
- CONDITION SET: male, C57BL/6J, mouse, plasma, po, 100 mg/kg

[
  {
    "MOLECULE SMILES": "CC(C)c1nc(N2CCN(c3ncc(-c4ccc(-n5cnn([C@H]6CCOC6)c5=O)c(F)c4)cc3C#N)CC2)no1",
    "AUC(0-t)": "6540 ng·h/mL"
  }
]

---

- EXPERIMENT DESCRIPTION: Pharmacokinetics of YH18968 in normal mice
- Assay type: in vivo, C57BL/6J mice
- CONDITION SET: male, C57BL/6J, mouse, plasma, po, 1 mg/kg

[
  {
    "MOLECULE SMILES": "CC(C)c1nc(N2CCN(c3ncc(-c4ccc(-n5cnn([C@H]6CCOC6)c5=O)c(F)c4)cc3C#N)CC2)no1",
    "bioavailability / %": 40
  }
]

---

- EXPERIMENT DESCRIPTION: Cytotoxicity assay
- Format: cell-based
- CONDITION SET: human, HepG2 cells

[
  {
    "MOLECULE": "CCc1cnc(N2CCC(c3nc(COc4ccc(-n5cnnn5)cc4)cs3)CC2)nc1 [MBX2982, reference compound]",
    "CC50 at 48 h [µM]": 15.9
  }
]

---

- EXPERIMENT DESCRIPTION: Pharmacokinetics of YH18968 in normal mice
- Type: in vivo, C57BL/6J mice
- CONDITION SET: male, C57BL/6J, mouse, plasma, po, 1 mg/kg

[
  {
    "MOLECULE SMILES": "CC(C)c1nc(N2CCN(c3ncc(-c4ccc(-n5cnn([C@H]6CCOC6)c5=O)c(F)c4)cc3C#N)CC2)no1",
    "VALUE UNITS": "ng/mL",
    "Cmax": 169
  }
]

---

- EXPERIMENT DESCRIPTION: Pharmacokinetics of YH18968 in normal mice
- Format: in vivo, C57BL/6J mice
- CONDITION SET: male, C57BL/6J, mouse, plasma, iv, 1 mg/kg

[
  {
    "MOLECULE SMILES": "CC(C)c1nc(N2CCN(c3ncc(-c4ccc(-n5cnn([C@H]6CCOC6)c5=O)c(F)c4)cc3C#N)CC2)no1",
    "AUC(0-inf) (ng·h/mL)": 1620
  }
]
